Cited source: patent US20120270915A1

study.system: UniProt:P34995
Sequence (P34995 whole entry): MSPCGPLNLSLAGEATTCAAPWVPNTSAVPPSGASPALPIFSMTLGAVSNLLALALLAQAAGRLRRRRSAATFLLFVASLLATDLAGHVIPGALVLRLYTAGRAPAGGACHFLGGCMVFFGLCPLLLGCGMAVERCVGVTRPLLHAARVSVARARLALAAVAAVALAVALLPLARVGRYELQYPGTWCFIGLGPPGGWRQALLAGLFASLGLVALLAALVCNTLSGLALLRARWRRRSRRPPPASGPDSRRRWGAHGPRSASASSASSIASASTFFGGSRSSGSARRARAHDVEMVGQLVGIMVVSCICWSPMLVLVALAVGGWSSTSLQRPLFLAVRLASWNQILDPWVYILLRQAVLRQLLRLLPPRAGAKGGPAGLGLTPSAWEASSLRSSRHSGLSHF
test.details: Prostanoid receptor antagonism (FLIPR), EP1
Format: cell-based
study.conditions: Table 1
recorded.metric: Kb (nM)
Number in nM, nothing else.

Worked cases, Kb given:
[
  {
    "compound": "O=C(CCc1ccc(F)cc1CN1CCC[C@H]1c1nc(C(=O)NCCCCC2CCCCC2)co1)NS(=O)(=O)C(F)(F)F [Example 12a]",
    "Kb, nM": 50
  },
  {
    "compound": "COc1ccc(CCC(=O)NS(=O)(=O)C(F)(F)F)c(CN2CCC[C@H]2c2nc(C(=O)NCCCCC3CCCCC3)co2)c1 [Example 12c]",
    "Kb, nM": 20
  },
  {
    "compound": "O=C(CCc1ccc(Cl)cc1CN1CCC[C@H]1c1nc(C(=O)NCCCCC2CCCCC2)co1)NS(=O)(=O)C(F)(F)F [Example 12b]",
    "Kb, nM": 70
  }
]

Request - read-out Kb | tested on UniProt:P34995 | compound O=C(CCc1cc2c(cc1CN1CCC[C@H]1c1nc(C(=O)NCCCCC3CCCCC3)co1)OCO2)NS(=O)(=O)C(F)(F)F [Example 12d]
60

Request - read-out Kb | tested on UniProt:P34995 | compound CCCCCCCCNC(=O)c1coc([C@@H]2CCCN2Cc2cc(OC)ccc2CCC(=O)NS(=O)(=O)C(F)(F)F)n1 [Example 12f]
60

Request - read-out Kb | tested on UniProt:P34995 | compound CCCCCCCCNC(=O)c1coc([C@@H]2CCCN2Cc2cc(F)ccc2CCC(=O)NS(=O)(=O)C(F)(F)F)n1 [Example 12e]
20
